Hello, the source for this data is PubChem BioAssay AID1159606, in case you need it.

- RUN_DESCRIPTION: inhibitors of TWEAK-Fn14 signaling, primary screen, luciferase reporter cells, uHTS (AID 1159606)
- EXPERIMENTAL_CONTEXT: TWEAK-stimulated Fn14 reporter cells, luciferase luminescence, 8 h; at 10 µM; stronger effect = higher value
Out of some 360,000 compounds screened, about 7,300 (2%) were called active. The sample as a whole holds a higher share of actives than the screen did.
Measured inhibition values are reported for all entries that follow.
Reply with just the number (in %).

Some compounds with known inhibition results, for comparison:
[[record]]
compound = "CC(NC(=O)COC(=O)c1ccc(Cl)cc1O)c1ccc(F)cc1 (stereo not given)"
outcome_measure = "inhibition"
measured_value = -8.36

[[record]]
compound = "C[C@H](NC(=O)[C@@H]1CCCN1C(=O)[C@@H]1CCCN1C(=O)c1ccccc1)c1ccccc1"
outcome_measure = "inhibition"
measured_value = -2.63

[[record]]
compound = "CCOC(=O)[C@]12CCCC=C1N(Cc1ccc(Cl)cc1Cl)C(=O)[C@H](CC(=O)N1CCCCC1)C2"
outcome_measure = "inhibition"
measured_value = 7.58


Req: Recorded inhibition for "CCc1ccc(NC(=O)Nc2ccncc2)cc1" , please?
Resp: -5.44

Req: Continue with "CC(C)=CC(=O)Nc1nnc(-c2ccc(F)cc2)s1"
Resp: -55.7

Req: Continue with "Cc1cc(=O)oc(C)c1C(=O)Nc1cnc2ccccc2c1"
Resp: 1.75

Req: Continue with "C=CCC[C@@H](Cc1ccc(F)cc1)C(=O)O[C@H](CNC(=O)[C@H](CC=C)CC(=O)N(CCO)Cc1ccccc1)c1ccccc1"
Resp: 36.5

Req: Continue with "COc1ccc(COC[C@H](CC(C)C)N2CCN(C(=O)c3cccc(C(F)(F)F)c3)CCC2=O)cc1"
Resp: 0.93

Req: Continue with "CCN(CC)S(=O)(=O)c1cccc(C(=O)NCC(=O)OCC(=O)NCc2ccccc2)c1"
Resp: 0.62

Req: Continue with "COc1cc2c(C(=O)N3CCN(C)CC3)c(CSc3ccccc3)n(C)c2cc1Br"
Resp: 0.16

###

- RUN_DESCRIPTION: inhibitors of TWEAK-Fn14 signaling, primary screen, luciferase reporter cells, uHTS (AID 1159606)
- EXPERIMENTAL_CONTEXT: TWEAK-stimulated Fn14 reporter cells, luciferase luminescence, 8 h; at 10 µM; stronger effect = higher value
Out of some 360,000 compounds screened, about 7,300 (2%) were called active. This is one part of a sample in which actives are shown more often than they occur.
OUTCOME_MEASURE: inhibition (%)
Reply with just the number (in %).

Req: Recorded inhibition for "CCc1nc2ccccc2c(C(=O)NCc2ccc(OC)cc2)c1C" , please?
Resp: -1.16

Req: Continue with "CC(C)CC(=O)N1CCN(Cc2ccccc2Br)CC1"
Resp: -11.1

Req: Continue with "Cc1ccc(Nc2nc(CSc3nnc(-c4ccncc4)n3-c3ccccc3C)cs2)cc1"
Resp: 74.3

Req: Continue with "CN(C(=O)COC(=O)Cn1cnc2c1c(=O)n(C)c(=O)n2C)C1(C#N)CCCCC1"
Resp: -7.55

###

Measured inhibition values are reported for all entries that follow.
- RUN_DESCRIPTION: inhibitors of TWEAK-Fn14 signaling, primary screen, luciferase reporter cells, uHTS (AID 1159606)
- EXPERIMENTAL_CONTEXT: TWEAK-stimulated Fn14 reporter cells, luciferase luminescence, 8 h; at 10 µM; stronger effect = higher value
Hit rate of the full screen: of about 360,000 compounds, about 7,300 (2%) were called active. This excerpt belongs to a sample that is enriched for actives.
Reply with just the number (in %).

Req: Recorded inhibition for "COc1cccc(/C=C/c2ccc3ccccc3n2)c1OC(C)=O" , please?
Resp: 86.8

Req: Continue with COc1ccc(C(O)c2nc(-c3ccc(OC)nc3)cs2)cc1 (configuration not stated)
Resp: -2.94

Req: Continue with C/C(CC1CC(C)(C)OC1=O)=N/Nc1nc(-c2ccccc2)cs1 (configuration not stated)
Resp: -29.9

Req: Continue with "CCOc1ccccc1/C=N/Nc1nc2ccccc2o1"
Resp: 15.2

Req: Continue with "CCOc1ccc(NC(=S)N2CCC(NC(=O)c3ccccc3)CC2)cc1"
Resp: -4.25

Req: Continue with Cc1ccc(-c2csc(NC3OC(=O)c4ccccc43)n2)cc1 (configuration not stated)
Resp: 85.8

Req: Continue with "Cc1ccc(N/C=C/C(=O)c2ccccc2)cc1C"
Resp: 66.8

Req: Continue with "O=C(/C=C/NCc1ccc(F)cc1)c1ccccc1"
Resp: -22.1

Req: Continue with "N#Cc1ccc(OCC(=O)Nc2nc(-c3ccccn3)cs2)cc1"
Resp: -7.26

Req: Continue with "COc1ccc(C(=O)/C=C/Nc2ccccn2)cc1"
Resp: 97.4

Req: Continue with COc1ccc(C(C)(NC(C)=O)c2nc(-c3ccc(S(C)(=O)=O)cc3)cs2)cc1 (configuration not stated)
Resp: -12.5

Req: Continue with "CCOc1cccc(/C=C/c2ccc3ccccc3n2)c1OC(C)=O"
Resp: 60
